# experimental.target: HCV Δ21 NS5b polymerase (Hepatitis C virus genotype 1b, UniProt P26663)
# Sequence (P26663 2420-2989, stated change not applied): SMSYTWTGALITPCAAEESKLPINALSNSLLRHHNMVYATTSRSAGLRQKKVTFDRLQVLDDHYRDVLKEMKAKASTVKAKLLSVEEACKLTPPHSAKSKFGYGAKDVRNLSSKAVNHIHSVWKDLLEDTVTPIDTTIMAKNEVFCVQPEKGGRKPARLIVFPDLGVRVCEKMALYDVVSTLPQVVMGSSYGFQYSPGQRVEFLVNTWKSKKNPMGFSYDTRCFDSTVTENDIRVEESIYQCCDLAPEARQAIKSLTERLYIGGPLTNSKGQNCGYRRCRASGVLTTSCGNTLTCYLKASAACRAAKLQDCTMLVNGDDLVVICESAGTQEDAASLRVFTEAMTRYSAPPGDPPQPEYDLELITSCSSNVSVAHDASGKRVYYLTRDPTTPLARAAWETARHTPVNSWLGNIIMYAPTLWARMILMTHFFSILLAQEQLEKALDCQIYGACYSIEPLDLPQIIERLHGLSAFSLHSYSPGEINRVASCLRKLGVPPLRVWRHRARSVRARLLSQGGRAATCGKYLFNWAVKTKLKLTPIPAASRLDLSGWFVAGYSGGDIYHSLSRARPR
assay.endpoint: IC50

Query :: State, in one line, measured IC50 of Nc1ncnc2c1nnn2C1OC(C=CP(=O)(O)OP(=O)(O)OP(=O)(O)O)CC1O (stereo not drawn) [Compound 38.4]
Result :: 10 to 100 µM

Query :: State, in one line, measured IC50 of COC1C(O)C(C=CP(=O)(O)OP(=O)(O)OP(=O)(O)O)OC1n1cnc2c(=O)[nH]c(N)nc21 (stereo not drawn) [Compound 16.95]
Result :: 10 to 100 µM

Query :: State, in one line, measured IC50 of Nc1nc2c(nnn2[C@@H]2O[C@H](/C=C/P(=O)(O)OP(=O)(O)OP(=O)(O)O)C[C@H]2O)c(=O)[nH]1 [Compound 10.4]
Result :: > 100 µM

Query :: State, in one line, measured IC50 of Nc1ncnc2c1nnn2[C@@H]1O[C@H](/C=C/P(=O)(O)OP(=O)(O)OP(=O)(O)O)[C@@H](O)[C@H]1O [Compound 6.8]
Result :: > 100 µM

Query :: State, in one line, measured IC50 of Nc1ncnc2c1ncn2[C@@H]1O[C@H](/C=C/P(=O)(O)OP(=O)(O)OP(=O)(O)O)[C@@H](O)[C@@H]1F [Compound 56.5]
Result :: > 100 µM

Query :: State, in one line, measured IC50 of Nc1nc2c(ncn2[C@@H]2O[C@H](/C=C/P(=O)(O)OP(=O)(O)OP(=O)(O)O)C[C@H]2O)c(=O)[nH]1 [Compound 9.12]
Result :: > 100 µM

Query :: State, in one line, measured IC50 of NC(=O)c1ncn([C@@H]2O[C@H](/C=C/P(=O)(O)OP(=O)(O)OP(=O)(O)O)C[C@H]2O)n1 [Compound 54.4]
Result :: > 100 µM

Query :: State, in one line, measured IC50 of CN(NS(C)(=O)=O)c1ncnc2c1ncn2[C@@H]1O[C@H](/C=C/P(=O)(O)OP(=O)(O)OP(=O)(O)O)C[C@H]1O [Compound 60.5]
Result :: > 100 µM

Query :: State, in one line, measured IC50 of O=C1C=Cc2nn([C@@H]3O[C@H](/C=C/P(=O)(O)OP(=O)(O)OP(=O)(O)O)C[C@H]3O)c3ncnc(c23)N1 [Compound 52.6]
Result :: < 10 µM

Query :: State, in one line, measured IC50 of O=c1ccn([C@@H]2O[C@H](/C=C/P(=O)(O)OP(=O)(O)OP(=O)(O)O)[C@@H](O)[C@H]2F)c(=O)[nH]1 [Compound 58.7]
Result :: 10 to 100 µM

Query :: State, in one line, measured IC50 of Nc1nc(N)c2nnn(C3OC(C=CP(=O)(O)OP(=O)(O)OP(=O)(O)O)CC3O)c2n1 (stereo not drawn) [Compound 53.4]
Result :: > 100 µM

Query :: State, in one line, measured IC50 of Nc1ncnc2c1ncn2[C@@H]1O[C@H](/C=C/P(=O)(O)OP(=O)(O)OP(=O)(O)O)[C@@H](O)[C@H]1F [Compound 55.7]
Result :: < 10 µM
